Quick list: fold change of affinity per entry.
- targetDesc: T1, Human CD137 ECD (human)
- T1 construct: also called 4-1BB
- T1 sequence (chain, as listed by the source limits assumed): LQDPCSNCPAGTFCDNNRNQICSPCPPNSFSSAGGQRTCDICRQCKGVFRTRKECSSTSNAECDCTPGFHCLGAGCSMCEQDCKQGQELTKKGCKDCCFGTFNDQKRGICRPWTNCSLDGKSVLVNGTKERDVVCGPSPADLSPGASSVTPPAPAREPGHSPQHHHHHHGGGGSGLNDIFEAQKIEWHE
- assayInfo: single mutant vs template dBBDu183H
Write the number in fold without appending the unit.

binder: H183/L072 VH Q50V (antibody, name in Kabat numbering, V domains shown) VH: QVQLVESGGGLVQPGRSLRLSCAASGFTFSNAWMHWVRQAPGKGLEWVAVIKDKGNAYAAYYAPSVKGRFTISRDDSKNSIYLQMNSLKTEDTAVYYCHYVHYASASTVLPAFGVDAWGQGTTVTVSS VL: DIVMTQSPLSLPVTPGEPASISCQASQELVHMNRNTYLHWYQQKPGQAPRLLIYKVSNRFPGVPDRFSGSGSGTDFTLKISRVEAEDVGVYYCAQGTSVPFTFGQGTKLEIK
unitDescriptor: fold
fold change of affinity: 0.3

Query block: Endpoint output: fold change of affinity of H183/L072 VH A54R (antibody, name in Kabat numbering, V domains shown) VH: QVQLVESGGGLVQPGRSLRLSCAASGFTFSNAWMHWVRQAPGKGLEWVAQIKDKGNRYAAYYAPSVKGRFTISRDDSKNSIYLQMNSLKTEDTAVYYCHYVHYASASTVLPAFGVDAWGQGTTVTVSS VL: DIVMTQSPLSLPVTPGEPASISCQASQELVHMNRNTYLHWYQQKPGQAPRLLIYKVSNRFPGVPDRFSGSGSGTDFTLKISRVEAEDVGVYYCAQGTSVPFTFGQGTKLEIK . Value?
Result block: 0.9

Value source: patent US20210388087A1
